molecular target: Telomerase reverse transcriptase (Homo sapiens) (UniProt O14746); test: Inhibition of telomerase in human HT-29 cells at 20 uM incubated for 48 hrs by TRAP assay; assay type: cell-based
Sequence (O14746 whole entry): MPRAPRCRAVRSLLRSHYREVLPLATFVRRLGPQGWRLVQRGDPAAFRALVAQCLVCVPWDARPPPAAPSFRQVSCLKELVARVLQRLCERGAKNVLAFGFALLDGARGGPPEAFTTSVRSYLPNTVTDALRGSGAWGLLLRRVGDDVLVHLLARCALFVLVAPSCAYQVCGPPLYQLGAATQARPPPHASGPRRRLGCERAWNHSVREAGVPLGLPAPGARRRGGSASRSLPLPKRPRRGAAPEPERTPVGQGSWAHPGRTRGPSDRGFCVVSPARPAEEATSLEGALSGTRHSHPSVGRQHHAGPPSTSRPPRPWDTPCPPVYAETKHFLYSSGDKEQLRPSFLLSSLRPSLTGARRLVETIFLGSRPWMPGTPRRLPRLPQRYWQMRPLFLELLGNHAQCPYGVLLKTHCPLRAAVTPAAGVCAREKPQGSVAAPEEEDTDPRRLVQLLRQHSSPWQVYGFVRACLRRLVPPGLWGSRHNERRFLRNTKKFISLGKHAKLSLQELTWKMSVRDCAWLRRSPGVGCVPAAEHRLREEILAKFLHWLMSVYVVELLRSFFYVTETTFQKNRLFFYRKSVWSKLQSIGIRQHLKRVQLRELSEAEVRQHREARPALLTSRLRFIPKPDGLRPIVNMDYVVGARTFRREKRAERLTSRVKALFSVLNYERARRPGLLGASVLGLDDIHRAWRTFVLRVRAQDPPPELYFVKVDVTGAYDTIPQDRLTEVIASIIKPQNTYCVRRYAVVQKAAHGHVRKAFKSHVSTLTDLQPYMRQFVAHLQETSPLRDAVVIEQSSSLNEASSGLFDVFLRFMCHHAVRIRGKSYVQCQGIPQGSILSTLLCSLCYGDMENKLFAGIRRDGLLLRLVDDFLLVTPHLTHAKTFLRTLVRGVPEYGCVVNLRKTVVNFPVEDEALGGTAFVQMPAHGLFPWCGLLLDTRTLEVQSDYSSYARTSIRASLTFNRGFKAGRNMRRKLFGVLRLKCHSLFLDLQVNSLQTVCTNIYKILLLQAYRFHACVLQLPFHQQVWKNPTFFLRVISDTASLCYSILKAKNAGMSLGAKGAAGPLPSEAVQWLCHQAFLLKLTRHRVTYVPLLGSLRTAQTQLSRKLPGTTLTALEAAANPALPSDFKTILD
Activity calls are given as the source filed them. The calls are words filed in the database; no cut-off is given here.
Thanks in advance; please answer with one of these: active, inactive

stdin: Called result for `Cc1cn([C@H]2C[C@H](n3cc(COC(=O)c4ccc(S(N)(=O)=O)cc4)nn3)[C@@H](CO)O2)c(=O)[nH]c1=O`
stdout: inactive

stdin: Called result for `Cc1cn([C@H]2C[C@H](n3cc(COc4ccc(S(N)(=O)=O)cc4)nn3)[C@@H](CO)O2)c(=O)[nH]c1=O`
stdout: active

stdin: Called result for `Cc1cn([C@H]2C[C@H](n3cc(CNC(=O)c4ccc(S(N)(=O)=O)cc4)nn3)[C@@H](CO)O2)c(=O)[nH]c1=O`
stdout: inactive

stdin: Called result for `Cc1cn([C@H]2C[C@H](n3cc(C[Se]c4ccc(NC(=S)Nc5cccc(S(N)(=O)=O)c5)cc4)nn3)[C@@H](CO)O2)c(=O)[nH]c1=O`
stdout: active
